System: UACC-257
Assay: NCI tumour cell line growth inhibition, 48 h
Activity calls are given as the source filed them. Cut-off read from the data, not from the text of the source: active = GI50 up to about 1.1 µM and inactive = higher.
Entries annotated with measured GI50

Example compounds with recorded GI50:
{"compound": "CCN(CC)C(=S)SS(=O)(=O)c1ccc(Cl)cc1", "system": "UACC-257", "observed measurement": "24.2 µM (inactive)"}
{"compound": "C=C1C(=O)CC2C(=O)C(C)(O)CC/C=C(\\C)C(=O)CC12 (configuration not stated)", "system": "UACC-257", "observed measurement": "20 µM (inactive)"}
{"compound": "O=C(NNC(=O)c1ccccc1O)c1ccco1", "system": "UACC-257", "observed measurement": "> 100 µM (inactive)"}

Exercise: Form field: reported GI50 of `Cc1ccc(S(=O)(=O)Nn2c(O)c(C#N)c(-c3ccc(N(C)C)cc3)c(C#N)c2=O)cc1`
Key: > 50 µM (inactive)

Exercise: Then this compound: COc1cc(CC2CCc3nc(N)nc(N)c3C2)cc(OC)c1OC (configuration not stated)
Key: 24.8 µM (inactive)

The reported numbers originate from ChEMBL document CHEMBL1201862.
